- Tested on: vancomycin-resistant enterococci
- EXPERIMENT: broth micro-dilution, mean geometric MIC
- Type: cell-based, Enterococcus faecium and Enterococcus faecalis
- STUDY CONDITIONS: enterococci, 24-hour incubation
MEASUREMENT LABEL: mean geometric MIC, Vancomycin Resistant Strains (µg/mL)
Your answer is read as µg/mL, so omit the unit and give the number.

• CNC(CC(C)C)C(=O)NC1C(=O)NC(CC(N)=O)C(=O)NC2C(=O)NC3C(=O)NC(C(=O)NC(C(=O)O)c4cc(O)cc(O)c4-c4cc3ccc4O)C(OC3CC(C)(N)C(O)C(C)O3)c3ccc(c(Cl)c3)Oc3cc2cc(c3OC2OC(CO)C(O)C(O)C2OC2CC(C)(NCc3ccc(OCCOC(C)(C)C)cc3)C(O)C(C)O2)Oc2ccc(cc2Cl)C1O (centres unmarked) [Compound 154] = 2.8

I'd like to know its mean geometric MIC, Vancomycin Resistant Strains. The compound in question is CNC(CC(C)C)C(=O)NC1C(=O)NC(CC(N)=O)C(=O)NC2C(=O)NC3C(=O)NC(C(=O)NC(C(=O)O)c4cc(O)cc(O)c4-c4cc3ccc4O)C(OC3CC(C)(N)C(O)C(C)O3)c3ccc(c(Cl)c3)Oc3cc2cc(c3OC2OC(CO)C(O)C(O)C2OC2CC(C)(NCc3ccc(OCCCCCCc4ccccc4)cc3)C(O)C(C)O2)Oc2ccc(cc2Cl)C1O (centres unmarked) [Compound 219]
0.71
